Cited source for all entries: patent US5514694A

Biological target: calpain II from rabbit
Experiment: Calpain II inhibition, Suc-Leu-Tyr-AMC hydrolysis (KI)
Format: biochemical
Details: Table 2, Z-Leu--AA--CONH--CH2 CH(OH)-R; read-out: KI Cal II
pKi: −log10 of the molar value.
ASSAY READOUT: pKi

INSERT INTO assay_data (compound, numeric_result) VALUES
  ('CCCC(NC(=O)C(CC(C)C)NC(=O)OCc1ccccc1)C(=O)C(=O)NCC(O)c1ccccc1 (stereo not drawn) [Z-Leu-Nva-CONH-CH2 CH(OH)-Ph, Z-Leu-Nva-CONH--CH2 CH(OH)Ph]', 4.96);

1 = CC(C)C[C@H](NC(=O)OCc1ccccc1)C(=O)N[C@@H](Cc1ccccc1)C(=O)C(=O)NCC(O)c1ccccc1 (stereo partly drawn) [Z-Leu-Phe-CONH-CH2 CH(OH)-Ph, Z-Leu-Phe-CONH--CH2 CH(OH)Ph]
2 = CCC(NC(=O)C(CC(C)C)NC(=O)OCc1ccccc1)C(=O)C(=O)NCC(O)c1ccccc1 (stereo not drawn) [Z-Leu-Abu-CONH-CH2 CH(OH)-Ph, Z-Leu-Abu-CONH--CH2 CH(OH)Ph]
Prompt: Lower value for measured pKi? Options: 1 , 2 Choose, then provide that item's label.
Response: 1
(1: 7.30, 2: 7.82)
